B1: VH:VL chains; a variant is named by its letters at X, in order (parent)
chain 1: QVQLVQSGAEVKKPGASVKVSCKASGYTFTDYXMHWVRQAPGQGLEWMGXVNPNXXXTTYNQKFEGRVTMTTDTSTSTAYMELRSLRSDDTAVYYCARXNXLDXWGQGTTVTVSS
chain 2: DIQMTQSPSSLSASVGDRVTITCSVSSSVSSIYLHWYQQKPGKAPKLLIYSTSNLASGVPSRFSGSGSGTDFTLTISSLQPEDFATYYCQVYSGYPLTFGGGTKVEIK

- Variants of: B1
- ASSAY OVERVIEW: yeast display scFab, FACS + sequencing
- CONDITION SET: with MET
The other results are listed elsewhere or left out. No count for the full screen is at hand.
PROPERTY NAME: antigen binding call

>>> observed_result("YRGRASLY")
"binds"
>>> observed_result("YTKKTFSY")
"no binding"
>>> observed_result("YTKRGDWD")
"no binding"
>>> observed_result("YRAGTAVS")
"binds"
>>> observed_result("DTAESSSF")
"no binding"
>>> observed_result("YKGRASAV")
"no binding"
>>> observed_result("FRGKGASV")
"binds"
>>> observed_result("AATTDSVD")
"binds"
>>> observed_result("FKGTDSSD")
"no binding"
>>> observed_result("DRAGDAVD")
"no binding"
>>> observed_result("FKGKSSSD")
"no binding"
>>> observed_result("YRRGSSSV")
"binds"
>>> observed_result("DTTGSAVV")
"no binding"
>>> observed_result("FRGRGAWD")
"binds"
>>> observed_result("SKKEDSAD")
"no binding"
>>> observed_result("YAKGDDAS")
"no binding"
>>> observed_result("VKEADAWV")
"no binding"
>>> observed_result("YKRGSAWV")
"binds"
>>> observed_result("VRGGGAWV")
"binds"
>>> observed_result("YKAGGALD")
"binds"
>>> observed_result("VGGGAAGV")
"no binding"
>>> observed_result("VAEKGDWY")
"no binding"
>>> observed_result("YTRGADWY")
"no binding"
>>> observed_result("FKGKGAVV")
"binds"
>>> observed_result("VRGTDAVV")
"no binding"
>>> observed_result("FKGKGAAF")
"no binding"
>>> observed_result("DTGTGSGA")
"no binding"
>>> observed_result("YRRGSSLF")
"binds"
>>> observed_result("VRGTDAGV")
"no binding"
>>> observed_result("DTTKSDGV")
"no binding"
>>> observed_result("YRGRSAAY")
"binds"
>>> observed_result("YRAKGALA")
"binds"
>>> observed_result("DRAGDDLY")
"no binding"
>>> observed_result("VRGGGAAV")
"binds"
>>> observed_result("FKGEGDSA")
"no binding"
>>> observed_result("YRGRSASY")
"binds"
>>> observed_result("VKAGDSGA")
"no binding"
>>> observed_result("YKRGSASV")
"binds"
>>> observed_result("YARADSSV")
"no binding"
>>> observed_result("YRGEAFLY")
"no binding"
>>> observed_result("YKGRGSLV")
"binds"
>>> observed_result("YTKTSSVD")
"no binding"
>>> observed_result("YKGKGSAV")
"binds"
>>> observed_result("YKAGGSAS")
"binds"
>>> observed_result("VKRGSSVD")
"binds"
>>> observed_result("FRGGASSD")
"binds"
>>> observed_result("SKAGGSAD")
"binds"
>>> observed_result("DTTKGDVV")
"no binding"
>>> observed_result("VEGGGSSV")
"no binding"
>>> observed_result("FRGRGFSV")
"no binding"
>>> observed_result("DTGTSDLY")
"no binding"
>>> observed_result("FAEGDDVV")
"no binding"
>>> observed_result("YRRRGSVA")
"binds"
>>> observed_result("VEGGGFAY")
"no binding"
